EXPERIMENTAL_SYSTEM: USP7 CD + UBL 1-5 (Homo sapiens, UniProt Q93009)
Construct: USP7 CD +
Sequence (Q93009 208-1102 limits assumed): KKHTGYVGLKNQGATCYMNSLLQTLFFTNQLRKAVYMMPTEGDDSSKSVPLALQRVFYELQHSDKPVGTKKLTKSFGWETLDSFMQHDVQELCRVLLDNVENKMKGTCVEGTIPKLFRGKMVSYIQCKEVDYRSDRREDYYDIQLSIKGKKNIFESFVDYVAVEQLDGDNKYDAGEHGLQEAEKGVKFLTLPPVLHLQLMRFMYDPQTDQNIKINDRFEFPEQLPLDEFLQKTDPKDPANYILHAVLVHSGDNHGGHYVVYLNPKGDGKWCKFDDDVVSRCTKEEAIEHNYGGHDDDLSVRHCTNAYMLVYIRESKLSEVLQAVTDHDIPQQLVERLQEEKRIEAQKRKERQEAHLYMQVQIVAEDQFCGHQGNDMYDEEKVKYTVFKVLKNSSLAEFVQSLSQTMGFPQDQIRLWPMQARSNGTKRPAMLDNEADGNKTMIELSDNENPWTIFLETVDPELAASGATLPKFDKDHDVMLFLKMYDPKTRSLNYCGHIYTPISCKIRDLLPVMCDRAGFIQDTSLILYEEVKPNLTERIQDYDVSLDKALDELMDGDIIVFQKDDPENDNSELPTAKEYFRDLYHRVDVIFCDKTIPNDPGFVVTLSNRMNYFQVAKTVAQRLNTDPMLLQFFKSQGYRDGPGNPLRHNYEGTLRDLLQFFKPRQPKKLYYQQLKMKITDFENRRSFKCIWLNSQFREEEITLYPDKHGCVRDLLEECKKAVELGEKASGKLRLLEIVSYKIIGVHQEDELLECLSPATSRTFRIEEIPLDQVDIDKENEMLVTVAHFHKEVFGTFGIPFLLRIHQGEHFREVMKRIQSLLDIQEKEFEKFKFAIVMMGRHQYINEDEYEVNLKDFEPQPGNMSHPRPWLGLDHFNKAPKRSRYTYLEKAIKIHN
ASSAY_PROCEDURE: Surface plasmon resonance assay (SPR)
Assay type: binding
REPORTED_CONDITIONS: steady-state KD; read-out: SPR USP7 CD + UBL 1-5 (KD_ss)
pKd: −log10 of the molar value.
The following compounds are shown together with reported pKd values.

# COMPOUND, pKd
data = [
    ("C[C@H](CC(=O)N1CCC(O)(Cn2cnc3c(C#CCO)n(C)nc3c2=O)CC1)c1ccccc1", "> 6.00"),
    ("C[C@H](CC(=O)N1CCC(O)(Cn2cnc3c(C#CCO)csc3c2=O)CC1)c1ccccc1", "> 6.00"),
    ("C[C@H](CC(=O)C1CCC(O)(Cn2cnc3cc(C#CCN=[N+]=[N-])ccc3c2=O)CC1)c1ccccc1 (some centres unmarked)", "> 6.00"),
    ("O=C(O)c1ccc(Nc2nc3ccc(NS(=O)(=O)c4cccs4)cc3s2)nn1", "4.00 to 6.00"),
    ("CCc1c(-c2ccc(C(=O)NCCCNC(=O)CCOCCOCCOCCNC(=O)OC(C)(C)C)nc2)cnc(N)c1-c1ccc(O)cc1", "4.00 to 6.00"),
]

What is its pKd for USP7 CD + UBL 1-5 (Homo sapiens, UniProt Q93009)? Entry: CCc1c(-c2ccc(O)cc2)cnc(C=O)c1-c1ccc(O)cc1
4.00 to 6.00

Value wanted: pKd (USP7 CD + UBL 1-5 (Homo sapiens, UniProt Q93009)) of entry CN1CC2CN(C(=O)Nc3nc4ccc(NS(=O)(=O)c5cccs5)cc4s3)CC2C1 (centres unmarked)
4.00 to 6.00

Quick check: pKd on USP7 CD + UBL 1-5 (Homo sapiens, UniProt Q93009), item O=C(Nc1nc2ccc(NS(=O)(=O)c3cccs3)cc2s1)N1CCOCC1 ?
4.00 to 6.00

* * *

EXPERIMENTAL_SYSTEM: UniProt:Q93009
ASSAY_PROCEDURE: Ub-Rho cleavage assay
Type: biochemical
REPORTED_CONDITIONS: Ub-Rho substrate, recombinant USP7; read-out: Ub (Rho) USP7.1 (IC50)
pIC50: −log10 of the molar value.
Below, each of the compounds is paired with its reported pIC50 value.

Record request: pIC50 value, item CCn1cc(S(=O)(=O)Nc2ccc3nc(NC(=O)C4CCN(C)CC4)sc3c2)cn1
4.00 to 6.00

* * *

EXPERIMENTAL_SYSTEM: USP7 CD + UBL 1-5 (Homo sapiens, UniProt Q93009)
Construct: USP7 CD +
ASSAY_PROCEDURE: Surface plasmon resonance assay (SPR)
Format: binding
REPORTED_CONDITIONS: SPR USP7 CD + UBL 1-5 (KD_ss) [nM], steady-state KD
QUANTITY: Kd

Item: O=C(C[C@@H](C(F)F)n1ccc(F)n1)N1CCC(O)(Cn2cnc3c(cnn3-c3ccc(F)cc3)c2=O)CC1 [U25] Test system: USP7 CD + UBL 1-5 (Homo sapiens, UniProt Q93009) Read-out: Kd Value: ?
< 1000 nM

* * *

pKd overview
EXPERIMENTAL_SYSTEM: USP7 CD + UBL 1-5 (Homo sapiens)
Construct: USP7 CD +
ASSAY_PROCEDURE: Surface plasmon resonance assay (SPR)
Assay type: binding
REPORTED_CONDITIONS: steady-state KD; read-out: SPR USP7 CD + UBL 1-5 (KD_ss)
pKd: −log10 of the molar value.

Before answering, review these 2 worked examples.
# COMPOUND, pKd
measured = [
    ("CN1CCC(C(=O)Nc2nc3cc(NS(=O)(=O)c4cccs4)ccc3s2)CC1", "< 4.00"),
    ("Cc1cc(Cl)cc(-c2ccnc3cc(CN4C(=O)CCC4=O)sc23)c1OC1CCN(CCCNC(=O)CCNC(=O)OC(C)(C)C)CC1", "> 6.00"),
]

What reported pKd corresponds to CCc1c(-c2ccc(C(=O)NCCCNC(=O)CCCCCCCNC(=O)OC(C)(C)C)nc2)cnc(N)c1-c1ccc(O)cc1 on USP7 CD + UBL 1-5 (Homo sapiens)?
4.00 to 6.00

Request body: readout pKd, system USP7 CD + UBL 1-5 (Homo sapiens), query CCc1c(-c2ccc(C(=O)NCCN)nc2)cnc(N)c1-c1ccc(O)cc1 . Return the value.
> 6.00

* * *

EXPERIMENTAL_SYSTEM: USP7 (Homo sapiens)
ASSAY_PROCEDURE: Ub-Rho cleavage assay
Assay type: biochemical
REPORTED_CONDITIONS: Ub-Rho substrate, recombinant USP7; read-out: Ub (Rho) USP7.1 (IC50)
Listing of recorded IC50 by entry.

Here are 5 compounds together with their reported answers.
# COMPOUND, IC50
data = [
    ("CCc1c(-c2ccc(OCCN)cc2)cnc(N)c1-c1ccc(O)cc1", "1 to 100 µM"),
    ("C[C@H](CC(=O)N1CCC(O)(Cn2cnc3cc(NCCN(C)CCCNC(=O)OC(C)(C)C)ccc3c2=O)CC1)c1ccccc1", "< 1 µM"),
    ("Cc1nocc1S(=O)(=O)Nc1ccc2nc(NC(=O)C3CCN(C)CC3)sc2c1", "> 100 µM"),
    ("Cc1cc(Cl)cc(-c2ccnc3cc(CN4C(=O)CCC4=O)sc23)c1OC1CCN(CCCNC(=O)CCCCCCCNC(=O)OC(C)(C)C)CC1", "< 1 µM"),
    ("Cn1ccc(C(=O)Nc2nc3ccc(NS(=O)(=O)c4cccs4)cc3s2)n1", "> 100 µM"),
]

Returns the measured IC50 for the input compound. Input: CCc1c(-c2ccc(C(=O)NCCCNC(=O)CCOCCOCCNC(=O)OC(C)(C)C)nc2)cnc(N)c1-c1ccc(O)cc1
1 to 100 µM

// lookup IC50 for O=C(Nc1nc2ccc(NS(=O)(=O)c3cccs3)cc2s1)C1CCNCC1
> 100 µM

# query: IC50 of entry Cc1cc(Cl)cc(-c2ccnc3cc(CN4C(=O)CCC4=O)sc23)c1OC1CCN(C(=O)CCOCCNC(=O)OC(C)(C)C)CC1
1 to 100 µM

Reported IC50, compound CN1CCCn2nc(C(=O)Nc3nc4ccc(NS(=O)(=O)c5ccncc5)cc4s3)cc2C1 : ____
> 100 µM

* * *

EXPERIMENTAL_SYSTEM: USP7 (Homo sapiens, UniProt Q93009)
Sequence (Q93009 whole entry): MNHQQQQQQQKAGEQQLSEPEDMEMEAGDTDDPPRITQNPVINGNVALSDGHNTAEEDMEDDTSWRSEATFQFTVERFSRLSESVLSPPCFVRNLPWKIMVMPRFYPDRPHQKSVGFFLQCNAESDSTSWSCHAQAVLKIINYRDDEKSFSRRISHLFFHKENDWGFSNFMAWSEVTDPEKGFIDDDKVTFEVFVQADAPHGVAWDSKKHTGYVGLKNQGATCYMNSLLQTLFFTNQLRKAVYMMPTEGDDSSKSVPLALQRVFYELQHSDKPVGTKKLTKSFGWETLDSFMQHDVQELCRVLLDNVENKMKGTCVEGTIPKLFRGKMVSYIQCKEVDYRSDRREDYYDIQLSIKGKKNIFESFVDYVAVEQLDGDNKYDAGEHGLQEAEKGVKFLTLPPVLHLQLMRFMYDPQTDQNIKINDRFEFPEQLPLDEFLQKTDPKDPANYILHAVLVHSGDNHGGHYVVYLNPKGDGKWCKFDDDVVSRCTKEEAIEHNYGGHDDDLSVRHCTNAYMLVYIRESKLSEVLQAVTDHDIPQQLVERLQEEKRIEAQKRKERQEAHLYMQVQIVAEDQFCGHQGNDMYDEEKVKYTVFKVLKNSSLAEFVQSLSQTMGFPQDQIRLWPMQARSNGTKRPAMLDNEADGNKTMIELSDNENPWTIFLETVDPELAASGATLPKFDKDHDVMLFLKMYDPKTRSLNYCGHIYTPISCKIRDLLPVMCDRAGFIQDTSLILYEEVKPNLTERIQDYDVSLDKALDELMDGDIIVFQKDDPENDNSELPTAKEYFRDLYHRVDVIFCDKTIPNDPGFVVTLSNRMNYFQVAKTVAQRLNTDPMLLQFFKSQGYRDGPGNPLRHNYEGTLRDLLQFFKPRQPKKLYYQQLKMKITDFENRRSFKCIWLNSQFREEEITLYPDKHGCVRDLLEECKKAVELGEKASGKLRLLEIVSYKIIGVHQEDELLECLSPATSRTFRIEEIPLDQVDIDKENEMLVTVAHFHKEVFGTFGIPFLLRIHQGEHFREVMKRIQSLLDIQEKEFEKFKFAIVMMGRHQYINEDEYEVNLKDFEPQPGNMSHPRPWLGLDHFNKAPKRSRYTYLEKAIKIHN
ASSAY_PROCEDURE: Ub-Rho cleavage assay
Type: biochemical
REPORTED_CONDITIONS: Ub-Rho substrate, recombinant USP7; read-out: Ub (Rho) USP7.1 (IC50)
QUANTITY: IC50

# COMPOUND, QUANTITY, REPORTED
measured = [
    ("C=CC(=O)N1CCC(C(=O)Nc2nc3ccc(NS(=O)(=O)c4cccs4)cc3s2)C1 (stereo not shown)", "IC50", "> 100 µM"),
]

Param readout = IC50; param system = USP7 (Homo sapiens, UniProt Q93009); param query = C[C@H](CC(=O)N1CCC(O)(Cn2cnc3c(C#CCO)csc3c2=O)CC1)c1ccccc1 ; response: value
< 1 µM

* * *

EXPERIMENTAL_SYSTEM: USP7 CD + UBL 1-5 (Homo sapiens, UniProt Q93009)
Construct: USP7 CD +
ASSAY_PROCEDURE: Surface plasmon resonance assay (SPR)
Format: binding
REPORTED_CONDITIONS: steady-state KD; read-out: SPR USP7 CD + UBL 1-5 (KD_ss)
QUANTITY: Kd

# MOLECULE, REPORTED
rows = [
    ("CN1CCCn2nc(C(=O)Nc3nc4ccc(NS(=O)(=O)c5ccncc5)cc4s3)cc2C1", "> 100 µM"),
    ("O=C(Nc1nc2ccc(NS(=O)(=O)c3cccs3)cc2s1)C1CCNCC1", "1 to 100 µM"),
    ("NC1CCn2nc(C(=O)Nc3nc4ccc(NS(=O)(=O)c5cccs5)cc4s3)cc2C1 (stereo not shown)", "1 to 100 µM"),
]

Next, consider the following molecule.
Query for USP7 CD + UBL 1-5 (Homo sapiens, UniProt Q93009): what Kd does the record show for CC(C)(C)OC(=O)N1CCC(C(=O)Nc2nc3ccc(N(S(=O)(=O)c4cccs4)S(=O)(=O)c4cccs4)cc3s2)CC1 ?
1 to 100 µM

* * *

Let's look at some compounds and their measured pKd.
EXPERIMENTAL_SYSTEM: USP7 CD + UBL 1-5 (Homo sapiens)
Construct: USP7 CD +
ASSAY_PROCEDURE: Surface plasmon resonance assay (SPR)
Assay type: binding
REPORTED_CONDITIONS: steady-state KD; read-out: SPR USP7 CD + UBL 1-5 (KD_ss)
pKd: −log10 of the molar value.

Worked examples, 5 compounds total:
# COMPOUND, EXPERIMENTAL_SYSTEM, pKd
data = [
    ("CN(C)Cc1cc(C(=O)Nc2nc3ccc(NS(=O)(=O)c4cccs4)cc3s2)nn1C", "USP7 CD + UBL 1-5 (Homo sapiens)", "4.00 to 6.00"),
    ("CN1CCCn2nc(C(=O)Nc3nc4ccc(NS(=O)(=O)c5cnccn5)cc4s3)cc2C1", "USP7 CD + UBL 1-5 (Homo sapiens)", "< 4.00"),
    ("O=C(Nc1nc2ccc(NS(=O)(=O)c3cccs3)cc2s1)c1ccco1", "USP7 CD + UBL 1-5 (Homo sapiens)", "4.00 to 6.00"),
    ("C=CC(=O)N1CCC(C(=O)Nc2nc3ccc(NS(=O)(=O)c4cccs4)cc3s2)C1 (stereo not drawn)", "USP7 CD + UBL 1-5 (Homo sapiens)", "4.00 to 6.00"),
    ("CCc1c(-c2ccc3n[nH]cc3c2)cnc(CNC(=O)OC(C)C)c1-c1ccc(O)cc1", "USP7 CD + UBL 1-5 (Homo sapiens)", "4.00 to 6.00"),
]

What measured pKd goes with CN1CCCn2nc(C(=O)Nc3nc4ccc(NS(=O)(=O)c5cn6c(n5)CCC6)cc4s3)cc2C1 ?
4.00 to 6.00

Recorded pKd for CS(=O)(=O)c1nccc(Nc2nc3ccc(NS(=O)(=O)c4cccs4)cc3s2)n1 , please?
4.00 to 6.00

Please give the measured pKd for this compound: CN1CCC(C(=O)Nc2nc3ccc(NS(=O)(=O)CC4CC4)cc3s2)CC1
4.00 to 6.00

Item NCc1ccc(Nc2nc3ccc(NS(=O)(=O)c4cccs4)cc3s2)nc1 has what recorded pKd?
4.00 to 6.00

Return reported pKd; argument: Nc1ncc(-c2ccc(O)cc2)cc1-c1ccc(O)cc1
4.00 to 6.00

Need pKd, item CCn1cc(S(=O)(=O)Nc2ccc3nc(NC(=O)C4CCN(C)CC4)sc3c2)cn1
< 4.00

# query: pKd of entry CCc1c(-c2ccc(C(=O)NCCCNC(=O)CCCCCNC(=O)OC(C)(C)C)nc2)cnc(N)c1-c1ccc(O)cc1
4.00 to 6.00

For O=C(Nc1nc2ccc(NS(=O)(=O)c3cccs3)cc2s1)c1ccn[nH]1 , what is its reported pKd?
4.00 to 6.00

Using the record for Cc1cc(Cl)cc(-c2ccnc3cc(CN4C(=O)CCC4=O)sc23)c1OC1CCN(C(=O)CCCCCCCCNC(=O)OC(C)(C)C)CC1 , report its pKd.
4.00 to 6.00

If you can, please state the reported pKd value of C=CS(=O)(=O)Nc1ccccc1-c1ccc(C(=O)N2CCC(O)(Cn3cnc4c(cnn4C)c3=O)CC2)cc1 .
4.00 to 6.00
